Measured D50 values are reported for all entries that follow.
assay overview: Absorbance in 1,4-dioxane-water mixtures (D50, spirolactone-zwitterion equilibrium)
Format: physicochemical
condition label: 1,4-Dioxane-Water with constant 0.3% SDS additive; dielectric constant at which absorbance is halved
measure name: D50

compound	relational operator	numeric result
CO[C@H]1C(=O)[C@]2(C)[C@@H](OC)C[C@H]3OC[C@@]3(OC(C)=O)[C@H]2[C@H](OC(=O)c2ccccc2)[C@]2(O)C[C@H](OC(=O)[C@H](O)[C@@H](NC(=O)CCCCCCCNC(=O)c3cccc4c3C(=O)OC43c4ccc(N(C)C)cc4C(C)(C)c4cc(N(C)C)ccc43)c3ccccc3)C(C)=C1C2(C)C [610CP-CTX 4′-isomer]	=	65
CC(=O)O[C@H]1C(=O)[C@]23C[C@H]2C[C@H]2OC[C@@]2(OC(C)=O)[C@H]3[C@H](OC(=O)c2ccccc2)[C@]2(O)C[C@H](OC(=O)[C@H](O)[C@@H](NC(=O)CCCCCCCNC(=O)c3cccc4c3C(=O)OC43c4ccc(N(C)C)cc4Oc4cc(N(C)C)ccc43)c3ccccc3)C(C)=C1C2(C)C [TMR-LTX 4′-isomer]	=	26.5
CO[C@H]1C(=O)[C@]2(C)[C@@H](OC)C[C@H]3OC[C@@]3(OC(C)=O)[C@H]2[C@H](OC(=O)c2ccccc2)[C@]2(O)C[C@H](OC(=O)[C@H](O)[C@@H](NC(=O)CCCCCCCNC(=O)c3cccc4c3C(=O)OC43c4ccc(N(C)C)cc4[Si](C)(C)c4cc(N(C)C)ccc43)c3ccccc3)C(C)=C1C2(C)C [SiR-CTX 4′-isomer]	>	80
CNc1ccc2c(c1)C(C)(C)c1cc(NC)ccc1C21OC(=O)c2c(C(=O)NCCCCCCCC(=O)N[C@@H](c3ccccc3)[C@@H](O)C(=O)O[C@H]3C[C@@]4(O)[C@@H](OC(=O)c5ccccc5)[C@@H]5[C@]6(OC(C)=O)CO[C@@H]6C[C@@H]6C[C@@]65C(=O)[C@H](OC(C)=O)C(=C3C)C4(C)C)cccc21 [580CP-LTX 4′-isomer]	=	62
